- systemTested: ACC2 (Homo sapiens, UniProt O00763)
- Sequence (O00763 whole entry, species assumed): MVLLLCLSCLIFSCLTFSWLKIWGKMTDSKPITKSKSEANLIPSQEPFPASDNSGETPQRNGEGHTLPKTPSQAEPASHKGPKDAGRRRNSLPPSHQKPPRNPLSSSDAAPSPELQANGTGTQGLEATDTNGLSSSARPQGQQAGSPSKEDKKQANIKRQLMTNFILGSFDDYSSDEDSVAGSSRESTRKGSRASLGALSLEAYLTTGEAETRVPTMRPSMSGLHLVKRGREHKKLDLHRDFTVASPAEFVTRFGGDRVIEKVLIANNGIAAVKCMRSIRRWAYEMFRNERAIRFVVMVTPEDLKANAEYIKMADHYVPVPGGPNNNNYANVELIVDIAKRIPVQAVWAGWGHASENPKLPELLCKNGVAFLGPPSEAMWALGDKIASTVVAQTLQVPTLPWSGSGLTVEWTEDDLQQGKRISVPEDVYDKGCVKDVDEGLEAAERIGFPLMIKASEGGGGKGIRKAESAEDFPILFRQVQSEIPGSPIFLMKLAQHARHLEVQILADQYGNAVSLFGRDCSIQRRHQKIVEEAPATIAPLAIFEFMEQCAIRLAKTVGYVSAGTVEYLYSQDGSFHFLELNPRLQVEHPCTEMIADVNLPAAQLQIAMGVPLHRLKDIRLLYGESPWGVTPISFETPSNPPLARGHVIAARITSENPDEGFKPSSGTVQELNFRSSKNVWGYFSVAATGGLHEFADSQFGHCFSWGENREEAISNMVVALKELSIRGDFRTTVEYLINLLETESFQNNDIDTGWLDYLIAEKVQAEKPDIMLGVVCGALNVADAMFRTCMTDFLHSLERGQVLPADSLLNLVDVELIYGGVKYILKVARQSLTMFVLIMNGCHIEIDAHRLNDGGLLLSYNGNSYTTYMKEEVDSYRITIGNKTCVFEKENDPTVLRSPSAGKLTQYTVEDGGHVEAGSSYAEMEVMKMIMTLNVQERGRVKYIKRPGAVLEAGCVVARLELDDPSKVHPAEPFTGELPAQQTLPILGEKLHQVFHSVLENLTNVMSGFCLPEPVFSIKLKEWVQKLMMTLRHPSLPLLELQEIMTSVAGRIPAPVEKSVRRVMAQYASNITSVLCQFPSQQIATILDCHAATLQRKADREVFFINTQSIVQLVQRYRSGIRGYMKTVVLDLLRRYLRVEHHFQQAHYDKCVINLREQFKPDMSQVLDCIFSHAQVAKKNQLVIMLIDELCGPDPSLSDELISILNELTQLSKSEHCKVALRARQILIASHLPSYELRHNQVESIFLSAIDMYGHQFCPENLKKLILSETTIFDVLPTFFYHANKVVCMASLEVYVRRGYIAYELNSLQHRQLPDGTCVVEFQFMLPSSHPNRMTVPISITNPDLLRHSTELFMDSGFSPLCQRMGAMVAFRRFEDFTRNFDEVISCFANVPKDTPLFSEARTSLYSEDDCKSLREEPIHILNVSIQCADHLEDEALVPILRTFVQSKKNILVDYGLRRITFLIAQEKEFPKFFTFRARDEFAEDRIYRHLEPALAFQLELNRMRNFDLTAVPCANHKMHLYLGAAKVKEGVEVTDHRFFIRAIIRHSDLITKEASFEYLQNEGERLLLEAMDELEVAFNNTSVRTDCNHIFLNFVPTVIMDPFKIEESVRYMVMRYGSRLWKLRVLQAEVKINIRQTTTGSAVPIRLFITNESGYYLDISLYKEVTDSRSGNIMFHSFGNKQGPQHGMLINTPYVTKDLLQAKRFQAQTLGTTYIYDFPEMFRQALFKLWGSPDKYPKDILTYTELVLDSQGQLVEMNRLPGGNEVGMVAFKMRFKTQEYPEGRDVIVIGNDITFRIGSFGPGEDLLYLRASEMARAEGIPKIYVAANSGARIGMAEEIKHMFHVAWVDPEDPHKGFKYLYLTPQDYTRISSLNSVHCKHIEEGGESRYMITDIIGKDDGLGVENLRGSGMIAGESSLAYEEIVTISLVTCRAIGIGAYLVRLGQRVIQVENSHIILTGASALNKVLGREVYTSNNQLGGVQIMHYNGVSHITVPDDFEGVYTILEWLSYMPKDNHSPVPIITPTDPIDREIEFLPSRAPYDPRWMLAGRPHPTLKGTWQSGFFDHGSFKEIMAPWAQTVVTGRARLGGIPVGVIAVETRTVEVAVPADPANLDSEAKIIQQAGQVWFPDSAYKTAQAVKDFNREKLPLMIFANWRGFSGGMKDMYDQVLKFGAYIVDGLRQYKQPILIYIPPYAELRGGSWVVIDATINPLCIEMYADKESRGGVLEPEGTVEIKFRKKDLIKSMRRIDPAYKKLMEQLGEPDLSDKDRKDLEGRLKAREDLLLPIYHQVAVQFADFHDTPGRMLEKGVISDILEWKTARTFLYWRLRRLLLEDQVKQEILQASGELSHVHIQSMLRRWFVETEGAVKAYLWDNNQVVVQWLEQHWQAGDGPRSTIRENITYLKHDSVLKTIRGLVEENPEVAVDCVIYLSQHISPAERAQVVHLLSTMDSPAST
- assayProtocol: In vitro ACC2 inhibition assay (ADP-Glo)
- Assay type: biochemical
pIC50: −log10 of the molar value.
endpointLabel: pIC50

- smilesStructure: "COc1ccccc1[C@H](Cn1c(=O)n(C(C)(C)C(=O)O)c(=O)c2c(C)c(-c3ncco3)sc21)OC1CCOCC1"
  endpointLabel: "pIC50"
  recordedResult: "> 7.00"
- smilesStructure: "[2H]C([2H])([2H])Oc1ccccc1[C@H](Cn1c(=O)n(C(C)(C)C(=O)O)c(=O)c2c(C)c(-c3ncco3)sc21)OC1CCOCC1"
  endpointLabel: "pIC50"
  recordedResult: "> 7.00"

----------
- systemTested: ACC2 (Homo sapiens, UniProt O00763)
- assayProtocol: In vitro ACC2 inhibition assay (ADP-Glo)
- Format: biochemical
- assayContext: read-out: ACC2
pIC50: −log10 of the molar value.
endpointLabel: pIC50

- compound: "CCO[C@@H](Cn1c(=O)n(C(C)(C)C(=O)O)c(=O)c2c(C)c(-c3ncco3)sc21)c1ccccc1OC"
  recordedResult: "> 7.00"
- compound: "CCOC(=O)c1sc2c(c1C)c(=O)n(CC(N)=O)c(=O)n2C[C@H](OC(C)C)c1ccccc1"
  recordedResult: "> 6.00"
- compound: "CCOC(=O)c1sc2c(c1C)c(=O)n(CC(=O)O)c(=O)n2CC(OC(C)C)c1ccccc1 (stereo in doubt) [I-96]"
  recordedResult: "4.70 to 5.30"
- compound: "[2H]c1ccc(CCn2c(=O)n(CC(=O)O)c(=O)c3c(C)c(C(=O)OCC)sc32)cc1"
  recordedResult: "> 5.30"

----------
Reported values of pIC50 for individual entries
- systemTested: ACC2 (Homo sapiens, UniProt O00763)
- assayProtocol: In vitro ACC2 inhibition assay (ADP-Glo)
- Assay type: biochemical
- assayContext: read-out: ACC2
pIC50: −log10 of the molar value.
endpointLabel: pIC50

- compound: "Cc1c(-n2cccn2)sc2c1c(=O)n(C(C)(C)C(=O)O)c(=O)n2CCc1ccccc1 [I-116]"
  endpointLabel: "pIC50"
  recordedResult: "> 5.30"
- compound: "CCOC(=O)c1sc2c(c1C)c(=O)n(CC(=O)O)c(=O)n2CCc1nc2ccccc2s1 [I-84]"
  endpointLabel: "pIC50"
  recordedResult: "< 4.30"
- compound: "CCc1ccccc1[C@H](Cn1c(=O)n(C(C)(C)C(=O)O)c(=O)c2c(C)c(-c3ncco3)sc21)O[C@H]1CC[C@H](O)CC1 [I-244]"
  endpointLabel: "pIC50"
  recordedResult: "> 7.00"

----------
Reported values of pIC50 for individual entries
- systemTested: ACC2 (Homo sapiens)
- assayProtocol: In vitro ACC2 inhibition assay (ADP-Glo)
- Assay type: biochemical
- assayContext: read-out: ACC2
- Source text: An exemplary procedure for the in vitro ACC inhibition assay, which can be used to determine the inhibitory action of compounds of the invention toward either ACC1 or ACC2, follows. The ADP-Glo™ Kinase Assay kit from Promega was used. The ADP-Glo™ Kinase Assay is a luminescent ADP detection assay to measure enzymatic activity by quantifying the amount of ADP produced during an enzyme reaction. […] Luminescence can be correlated to ADP concentrations by using an ATP-to-ADP conversion curve. […]
pIC50: −log10 of the molar value.

- smilesStructure: "COc1ccccc1[C@H](Cn1c(=O)n(C(C)(C)C(N)=O)c(=O)c2c(C)c(-c3ncco3)sc21)O[C@H]1CC[C@@H](O)CC1"
  pIC50: "> 7.00"
- smilesStructure: "CCOC(=O)c1sc2c(c1C)c(=O)n(CCc1nnn[nH]1)c(=O)n2CCc1ccccc1"
  pIC50: "> 5.30"
- smilesStructure: "CCOC(=O)c1sc2c(c1C)c(=O)n(C(C)(C)C(=O)O)c(=O)n2C[C@H](OC(C)C)c1ccccc1"
  pIC50: "> 6.00"
- smilesStructure: "COc1ccccc1[C@H](Cn1c(=O)n(C(C)(C)C(N)=O)c(=O)c2c(C)c(-c3ncco3)sc21)OCC1CCOCC1"
  pIC50: "> 7.00"
- smilesStructure: "CCOC(=O)c1sc2c(c1C)c(=O)n(C(C)(C)C(=O)O)c(=O)n2C[C@H](OCC(C)C)c1ccccc1"
  pIC50: "> 6.00"
- smilesStructure: "Cc1c(C(=O)NCCO)sc2c1c(=O)n(CCO)c(=O)n2CCc1ccccc1"
  pIC50: "< 4.30"
- smilesStructure: "CCOC(=O)c1sc2c(c1C)c(=O)n(CCO)c(=O)n2CCc1ccccc1Cl"
  pIC50: "> 5.30"
- smilesStructure: "CCc1ccccc1[C@H](Cn1c(=O)n(C(C)(C)C(=O)O)c(=O)c2c(C)c(-c3ncco3)sc21)OCCO"
  pIC50: "> 7.00"
- smilesStructure: "COc1ccccc1[C@H](Cn1c(=O)n(C(C)(C)C(=O)NS(C)(=O)=O)c(=O)c2c(C)c(-c3ncco3)sc21)OC(C)C"
  pIC50: "> 7.00"
- smilesStructure: "Cc1c(-c2ncco2)sc2c1c(=O)n(C(C)(C)C(=O)O)c(=O)n2C[C@H](OCc1ccccc1)c1ccccc1"
  pIC50: "> 5.30"
- smilesStructure: "Cc1c(-c2ncco2)sc2c1c(=O)n(C(C)(C)C(=O)O)c(=O)n2C[C@H](OC1CCOCC1)c1ccccc1CO"
  pIC50: "> 7.00"
- smilesStructure: "Cc1c(-c2ncco2)sc2c1c(=O)n(C(C)(C)C(=O)O)c(=O)n2C[C@H](O[C@@H](C)CO)c1ccccc1"
  pIC50: "> 6.00"
- smilesStructure: "CCOC(=O)c1sc2c(c1C)c(=O)n(CCS(C)(=O)=O)c(=O)n2CCc1ccccc1"
  pIC50: "< 4.30"
- smilesStructure: "CCOC(=O)c1sc2c(c1C)c(=O)n(CC(=O)O)c(=O)n2C[C@H](O)c1ccccc1"
  pIC50: "> 5.30"
- smilesStructure: "CCOC(=O)c1sc2c(c1C)c(=O)n(CCOCc1ccccc1)c(=O)n2CCc1ccccc1"
  pIC50: "< 4.30"
- smilesStructure: "Cc1c(-c2ncco2)sc2c1c(=O)n(C(C)(C)C(=O)O)c(=O)n2C[C@H](O[C@H]1CC[C@@H](N)CC1)c1ccccc1"
  pIC50: "> 5.30"
- smilesStructure: "CNC(=O)c1sc2c(c1C)c(=O)n(CCO)c(=O)n2CCc1ccccc1"
  pIC50: "< 4.30"
- smilesStructure: "Cc1c(C(=O)OC2CCC2)sc2c1c(=O)n(CC(=O)O)c(=O)n2CCc1ccccc1"
  pIC50: "4.70 to 5.30"
- smilesStructure: "COc1ccccc1[C@H](Cn1c(=O)n(C(C)(C)C(=O)N2CCC2)c(=O)c2c(C)c(-c3ncco3)sc21)OC(C)C"
  pIC50: "> 7.00"
- smilesStructure: "Cc1c(C2=NCCO2)sc2c1c(=O)n(CC(=O)O)c(=O)n2CCc1ccccc1"
  pIC50: "> 5.30"
- smilesStructure: "CCOC(=O)c1sc2c(c1C)c(=O)n([C@H](C)C(=O)O)c(=O)n2CCc1ccccc1"
  pIC50: "> 5.30"
- smilesStructure: "COc1ccccc1[C@H](Cn1c(=O)n(C(C)(C)C(=O)O)c(=O)c2c(C)c(-c3ncco3)sc21)OC1COC1"
  pIC50: "> 5.30"
- smilesStructure: "CCOC(=O)c1sc2c(c1C)c(=O)n(CC(=O)O)c(=O)n2Cc1ccc2ccn(C)c2c1"
  pIC50: "4.70 to 5.30"
- smilesStructure: "Cc1c(C(=O)OCCO)sc2c1c(=O)n(CCO)c(=O)n2CCc1ccccc1"
  pIC50: "4.30 to 4.70"
- smilesStructure: "CCOC(=O)c1sc2c(c1C)c(=O)n(CCO)c(=O)n2Cc1csc(C)n1"
  pIC50: "< 4.30"
- smilesStructure: "Cc1c(C2CCC2)sc2c1c(=O)n(C(C)(C)C(=O)O)c(=O)n2CCc1ccccc1"
  pIC50: "4.70 to 5.30"
- smilesStructure: "CCOC(=O)c1sc2c(c1C)c(=O)n(CCO)c(=O)n2Cc1ccc2[nH]ccc2c1"
  pIC50: "< 4.30"
- smilesStructure: "CCOC(=O)c1sc2c(c1C)c(=O)n(CS(C)(=O)=O)c(=O)n2CCc1ccccc1"
  pIC50: "< 4.30"
- smilesStructure: "Cc1c(-c2ncco2)sc2c1c(=O)n(C(C)(C)C(=O)O)c(=O)n2C[C@H](OC1CCC(=O)CC1)c1ccccc1"
  pIC50: "> 6.00"
- smilesStructure: "Cc1c(-c2ncco2)sc2c1c(=O)n(C(C)(C)C(=O)O)c(=O)n2C[C@H](OCC(F)(F)F)c1ccccc1"
  pIC50: "> 6.00"
